Where do these numbers come from? They come from PubChem BioAssay.

measurementProtocol: inhibition of 3D7 malaria parasite growth – strain 3D7 (AID 2306);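 note: 0% = DMSO wells and 100% = chloroquine plus artemisinin control wells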
conditionLabel: P. falciparum 3D7 erythrocytic growth, LDH absorbance, 72 h; at 2 µM; stronger effect = higher value
assayReadout: growth inhibition (%)

compound="O=S(=O)(NC1CCN(c2ccnc3cc(Cl)ccc23)C1)c1cccc(F)c1 (configuration not stated)" reportedvalue=98
compound=COc1cc2nc(NCCCN3CCCCC3)nc(NCc3ccccc3)c2cc1OC reportedvalue=102
compound="CC(C)OC(=O)c1ccc(NC(=O)N[C@@H](Cc2ccc(O)cc2)C(=O)NC2C[C@H]3CC[C@@H](C2)N3Cc2ccccc2)cc1 (some centres not stated)" reportedvalue=92
compound=Cc1ccc(C)c(Cn2c(N3CCC(C(=O)NCc4cccs4)CC3)nc3ccccc32)c1 reportedvalue=89
compound=O=C(NC1CCN(CC2(c3ccccc3)CCCC2)CC1)c1[nH]ncc1Cl reportedvalue=83
compound=CCOc1cc(Cc2cnc(N)nc2N)cc(OCC)c1OCCCCC(=O)OC reportedvalue=95
compound="CC(CN(C)C)C(=O)Nc1cccc(-c2ccc(-c3nc4ccc(F)cc4[nH]3)cc2)c1 (configuration not stated)" reportedvalue=101
